system: Escherichia coli TOP10; assay: shrunken log2 fold change of peptide-encoding DNA abundance (4.5 h post-induction vs induction); higher = less antimicrobial activity (less host growth inhibition); settings: time post-induction: 4.5 h; library: site-saturation at positions 5, 18, 19, 20
We use -0.7 as the dividing line for shrunken log2 fold change: on or above the line is satisfied, below is not satisfied.

Is shrunken log2 fold change for RRIRRRPPRLPRPRPRPDVRPRP at or above -0.7? satisfied

Is shrunken log2 fold change for RRIRDRPPRLPRPRPRPTRFPRP at or above -0.7? satisfied

Is shrunken log2 fold change for RRIRYRPPRLPRPRPRPHIEPRP at or above -0.7? not satisfied

Is shrunken log2 fold change for RRIRERPPRLPRPRPRPNDNPRP at or above -0.7? not satisfied

Is shrunken log2 fold change for RRIRARPPRLPRPRPRPLCWPRP at or above -0.7? satisfied

Is shrunken log2 fold change for RRIRWRPPRLPRPRPRPRYNPRP at or above -0.7? satisfied

Is shrunken log2 fold change for RRIRSRPPRLPRPRPRPEIVPRP at or above -0.7? satisfied

Is shrunken log2 fold change for RRIRYRPPRLPRPRPRPSLLPRP at or above -0.7? not satisfied

* * *

tested on: Escherichia coli TOP10; test: shrunken log2 fold change of peptide-encoding DNA abundance (4.5 h post-induction vs induction); higher = less antimicrobial activity (less host growth inhibition); conditions: time post-induction: 4.5 h; library: site-saturation at positions 5, 18, 19, 20;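 further: peptides expressed intracellularly from a pBAD plasmid library in pooled LB shake-flask culture, induced with 0.3% L-arabinose, DNA abundance read by NGS, three biological replicates, DESeq2 with apeglm shrinkage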
recorded_metric: shrunken log2 fold change
Just the number.

GET /values?readout=shrunken log2 fold change&system=Escherichia coli TOP10&item= RRIRIRPPRLPRPRPRPMFPPRP -0.724

GET /values?readout=shrunken log2 fold change&system=Escherichia coli TOP10&item= RRIRMRPPRLPRPRPRPFQHPRP 0.0658

GET /values?readout=shrunken log2 fold change&system=Escherichia coli TOP10&item= RRIRSRPPRLPRPRPRPDMAPRP -0.0366

GET /values?readout=shrunken log2 fold change&system=Escherichia coli TOP10&item= RRIRNRPPRLPRPRPRPVLDPRP -0.299

GET /values?readout=shrunken log2 fold change&system=Escherichia coli TOP10&item= RRIRKRPPRLPRPRPRPYFLPRP -0.278

GET /values?readout=shrunken log2 fold change&system=Escherichia coli TOP10&item= RRIRGRPPRLPRPRPRPHQCPRP -0.0129

GET /values?readout=shrunken log2 fold change&system=Escherichia coli TOP10&item= RRIRWRPPRLPRPRPRPCAAPRP 1.32

GET /values?readout=shrunken log2 fold change&system=Escherichia coli TOP10&item= RRIRMRPPRLPRPRPRPVRQPRP 0.332

GET /values?readout=shrunken log2 fold change&system=Escherichia coli TOP10&item= RRIRARPPRLPRPRPRPFASPRP 0.0388

GET /values?readout=shrunken log2 fold change&system=Escherichia coli TOP10&item= RRIRARPPRLPRPRPRPAYWPRP 0.393

GET /values?readout=shrunken log2 fold change&system=Escherichia coli TOP10&item= RRIRMRPPRLPRPRPRPPRTPRP 1.46

GET /values?readout=shrunken log2 fold change&system=Escherichia coli TOP10&item= RRIRMRPPRLPRPRPRPNCEPRP 0.247

GET /values?readout=shrunken log2 fold change&system=Escherichia coli TOP10&item= RRIRFRPPRLPRPRPRPYSHPRP -1.77

GET /values?readout=shrunken log2 fold change&system=Escherichia coli TOP10&item= RRIRPRPPRLPRPRPRPMVHPRP 0.137

GET /values?readout=shrunken log2 fold change&system=Escherichia coli TOP10&item= RRIRARPPRLPRPRPRPGDIPRP -0.0868
